Across several publications, the following pIC50 results were reported for JNK3 (Homo sapiens, UniProt P53779).
pIC50: −log10 of the molar value.
reportedProperty: pIC50

* Cn1cnc(-c2c(Cl)csc2NC(=O)Cn2c(=O)ccn3nc(C(F)(F)F)cc23)n1 | > 7.00
* CN(C)CCn1cnc(-c2c(Cl)csc2NC(=O)Cn2c(=O)ccc3cc(C(F)(F)F)ccc32)n1 | > 7.00
* COCn1nnc(-c2ccsc2NC(=O)Cc2ccc(OC)cc2)n1 | < 4.30
* O=C(Cn1c(=O)ccc2cc(OC(F)(F)F)ccc21)Nc1scc(Br)c1-c1ncn[nH]1 | > 7.00
* O=C(Cn1c(=O)ccc2cc(F)c(F)cc21)Nc1scc(Br)c1-c1ncn[nH]1 | > 7.00
* COc1cccc(-c2cnc3[nH]ccc3c2)c1 | ≥ 5.00
* CNC(=O)c1cc(-n2ncc3cc(Nc4c(F)cccc4Cl)c(F)cc32)cs1 | > 6.70
* Fc1ccc(-c2nc3n(c2-c2ccnc(NC4CCC4)n2)[C@H](Cn2ccnc2)CC3)cc1 | 8.15
* CCN(CCO)C1CCC(c2cnc3[nH]cc(-c4cnn(C)c4)c3c2)CC1 (mixture of isomers) | 6.60
* CC(O)CNc1nccc(-n2c(CC#N)cnc2-c2ccc(Cl)c(Cl)c2)n1 (centres unmarked) | 7.00 to 7.52
* N#Cc1csc(NC(=O)CN2C(=O)CCc3ncccc32)c1-c1nccs1 | > 7.00
* O=C(Cc1cccc2ccccc12)Nc1ccsc1-n1ccnc1 | 5.00 to 7.00
* CN(C)c1ccc(Oc2cnc3[nH]cc(-c4cnn(C)c4)c3c2)cc1 | > 6.30
* Cn1cc(-c2c[nH]c3ncc(C4CCC(c5ccccc5)CC4)cc23)cn1 (mixture of isomers) | 7.04
* O=C(Cn1c(=O)ccc2cc(C(F)(F)F)ccc21)Nc1scc(Cl)c1-c1ncn[nH]1 | > 7.00
* COc1ccc(Nc2ccc3cc[nH]c3n2)cc1 | ≥ 5.00
* CCN(C)[C@H]1CC[C@@H](c2cnc3[nH]cc(-c4cnn(C)c4)c3c2)CC1 | 6.45
